tested on: ROB ((S,S)-butanediol dehydrogenase); assay: Substrate specificity of ROB: oxidation activity; assay type: biochemical, Ochrobactrum sp. KNKc71-3; conditions: each compound 10 mM, NAD+ 2 mM, phosphate buffer pH 8.0, 30° C., 1 minute, activity against 2,3-butanediol taken as 100
Below: a set of entries, each annotated with reported Relative activity (%).
Put down the number, then write its unit next to it.

Look over these answered cases.
- compound: "CCCCO"
  system name: "ROB ((S,S)-butanediol dehydrogenase)"
  Relative activity (%): "0%"
- compound: "CCC(O)CC"
  system name: "ROB ((S,S)-butanediol dehydrogenase)"
  Relative activity (%): "3.3%"
- compound: "CCCO"
  system name: "ROB ((S,S)-butanediol dehydrogenase)"
  Relative activity (%): "0%"

What Relative activity (%) appears in the records for this compound with ROB ((S,S)-butanediol dehydrogenase)? CC(O)CO (stereo not shown) 57.9%

What Relative activity (%) appears in the records for this compound with ROB ((S,S)-butanediol dehydrogenase)? CC(O)C(C)O (stereo not shown) 100%

What Relative activity (%) appears in the records for this compound with ROB ((S,S)-butanediol dehydrogenase)? CC(O)CCl (stereo not shown) 7.7%

What Relative activity (%) appears in the records for this compound with ROB ((S,S)-butanediol dehydrogenase)? COC(=O)C(C)O (stereo not shown) [Methyl lactate] 0.9%
